Test system: carrageenin edema in rat's paw
Test: Carrageenin Edema Test in Rat's Paw (anti-inflammatory activity)
Type: in vivo, Female Wistar rats
Details: 100 mg/kg, oral
Can you tell me Inhibition (carrageenin edema), Table 2 for the items I'm about to list?
Answers are plain numbers, in %.

1. CN(C)CCCOc1nn(Cc2ccccc2)c2ccccc12 [Compound C-4, reference compound] :: 51
2. CC1CCCCN1CCCn1nc(N)c2ccccc21 (stereo not shown) :: 51
3. CN(C)CCNc1nn(-c2ccccc2)c2ccccc12 [Compound C-5, reference compound] :: 55

**Q:** Would you mind telling me what Inhibition (carrageenin edema), Table 2 value was observed for CC1CCCCN1CCCNc1n[nH]c2ccccc12 (stereo not shown) ?
**A:** 67

###

Test: Acute toxicity (LD50), intravenous injection
Details: mouse, in vivo, male ddY-strain mice, read-out: LD50, Table 19
Label key: True means LD50 at 72 h under 200 mg/kg; False means LD50 at 72 h of 200 mg/kg or more.

Illustrative cases are given below, each with its answer.
1) Nc1nn(CCCN2CCC(O)CC2)c2ccccc12 :: False
2) c1ccc2c(NCCCN3CCCCC3)n[nH]c2c1 :: True

**Q:** Problem: For the compound `Nc1nn(CCN2CCCCC2)c2ccccc12` , is LD50 at 72 h under 200 mg/kg?
**A:** True

###

Experiment: Acute toxicity (LD50), intravenous injection
Conditions: mouse, in vivo, male ddY-strain mice, read-out: LD50, Table 19
Can you tell me LD50 at 72 h for the items I'm about to list?
For clarity, give the value followed by its unit.

These solved cases illustrate the format of a correct answer.
1) CN(C)CCn1nc(N)c2ccccc21 :: 343 mg/kg
2) CN1CCN(CCCNc2n[nH]c3ccccc23)CC1 :: 359 mg/kg

Return reported LD50 at 72 h values for all items listed beneath this line.
1. CCN(CC)CCCNc1nn(CCCN(CC)CC)c2ccccc12
2. OC1CCN(CCCNc2n[nH]c3ccccc23)CC1
3. CC(CCn1nc(NCCC(C)N2CCCCC2)c2ccccc21)N(C)C (stereo not drawn)
4. CC1CCCC(C)N1CCCNc1n[nH]c2ccccc12 (stereo not drawn)

**A:**
238 mg/kg
358 mg/kg
213 mg/kg
143 mg/kg

Hello, the source for this data is patent US4549023A, in case you need it.
